Provide the recorded activity, negative = inhibition for the entries that follow.
- protocol_details: qHTS profiling for inhibitors of Plasmodium falciparum proliferation (AID 504749);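 note: 0% = DMSO vehicle and full inhibition = artemisinin control; nearly all actives have a fitted effect of over 60% in size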
- recorded_conditions: P. falciparum in erythrocytes, SYBR Green DNA, 72 h; at 28.7 µM (top of the series); parasite line A
Records with an inconclusive call do not appear.
Answers are plain numbers, in %.

Take a look at these entries with their results.
[
  {
    "line_notation": "CC(C)(C)NC[C@H](O)c1cc(O)cc(O)c1",
    "reading": -9.2
  },
  {
    "line_notation": "N[C@@H](CO)C(=O)NNCc1ccc(O)c(O)c1O",
    "reading": 21.9
  }
]

Lookup: Return activity, negative = inhibition for the following molecule: `CO/N=C(\C(=O)N[C@@H]1C(=O)N2C(C(=O)O)=C(COC(C)=O)CS[C@@H]12)c1csc(N)n1`
Found: 7.66

---

- protocol_details: Stat Signaling Pathway (AID 446);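 note: ME-180 cervical cancer cells given 40 pM IL-6 alongside compound; SIE-controlled beta-lactamase reporter measured as 460/530 nm FRET emission ratio; % is set by controls: 0 for no effect and ±100 for the full control effect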
- recorded_conditions: ME-180 SIE beta-lactamase reporter, IL-6 stimulated, 5 h; at 7.69 µM (top of the series) unless noted
Records with an inconclusive call do not appear.
For each of the compounds below, state its activity, negative = inhibition.
Give bare numbers, in %.

// solved cases for activity, negative = inhibition follow
[
  {
    "line_notation": "O=C(c1cnccn1)N1CCC2(CC1)CN(Cc1cc(C(F)(F)F)cc(C(F)(F)F)c1)C2",
    "unit_annotation": "%",
    "activity, negative = inhibition": -1.36
  },
  {
    "line_notation": "CN(C)C(=O)c1ccc(-c2cncnc2Nc2ccc(F)cc2)cc1",
    "unit_annotation": "%",
    "activity, negative = inhibition": 9.71
  },
  {
    "line_notation": "COc1ccc(CNc2cc(-c3ccccc3OC)ncn2)c(OC)c1",
    "unit_annotation": "%",
    "activity, negative = inhibition": 5.25
  }
]

Consider the record given below.
Lookup: Please give measured activity, negative = inhibition of the following entry: `Cn1cc(-c2nc3cnc(Oc4ccccc4)nc3n(Cc3cccs3)c2=O)c2ccccc21`
Found: 11

---

- experimental_system: Cytochrome P450 3A4 (Homo sapiens) (UniProt P08684)
- Sequence (P08684 whole entry, looked up): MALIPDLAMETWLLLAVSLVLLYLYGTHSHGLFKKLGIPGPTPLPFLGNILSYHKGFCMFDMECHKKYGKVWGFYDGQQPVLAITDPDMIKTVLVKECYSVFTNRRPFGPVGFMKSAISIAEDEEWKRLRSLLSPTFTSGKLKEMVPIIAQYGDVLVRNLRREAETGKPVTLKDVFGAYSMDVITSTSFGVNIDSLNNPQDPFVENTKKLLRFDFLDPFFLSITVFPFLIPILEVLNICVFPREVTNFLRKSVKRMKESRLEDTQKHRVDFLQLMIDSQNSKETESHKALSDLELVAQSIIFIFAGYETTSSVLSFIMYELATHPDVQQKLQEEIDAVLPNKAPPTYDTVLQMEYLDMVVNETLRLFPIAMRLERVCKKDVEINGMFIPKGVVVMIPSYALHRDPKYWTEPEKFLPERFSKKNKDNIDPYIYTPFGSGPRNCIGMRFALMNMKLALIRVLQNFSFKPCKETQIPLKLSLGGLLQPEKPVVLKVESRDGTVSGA
- protocol_details: qHTS Assay for Activators of Cytochrome P450 3A4 (AID 885); note: nearly all actives have a fitted effect of over 65% in size
- recorded_conditions: recombinant CYP3A4, Luciferin-PPXE luminescence, 60 min; series mostly up to 57.1 µM
Calls of active or inactive are those of the source. The call rests on the fitted dose curve; in most records, active means well fitted activation curve with a large enough effect; inconclusive means small, poorly fitted or top-dose-only effect; inactive means no such curve, though single readings can be large or run the other way.
Valid outcomes are listed here; reply with one: active, inactive

// below: answered compounds
[
  {
    "line_notation": "COc1ccccc1-c1nccc(NCc2cccc(C)c2)n1",
    "experimental_system": "Cytochrome P450 3A4 (Homo sapiens) (UniProt P08684)",
    "label_class": "inactive"
  },
  {
    "line_notation": "COc1cccc(-c2ccc3ncnc(NCCNC(C)=O)c3c2)c1",
    "experimental_system": "Cytochrome P450 3A4 (Homo sapiens) (UniProt P08684)",
    "label_class": "inactive"
  },
  {
    "line_notation": "CN(C)C(=O)c1ccc(-c2nccc(NCc3cccs3)n2)cc1",
    "experimental_system": "Cytochrome P450 3A4 (Homo sapiens) (UniProt P08684)",
    "label_class": "inactive"
  }
]

We next turn to a different compound, shown below.
Lookup: Look up the recorded call for `O=C(c1cccc(F)c1)N1CCC2(CC1)CCN(c1ccc(-c3ccccc3)cc1)CC2` in this test.
Found: active

---

- protocol_details: Stat Signaling Pathway (AID 446);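 note: ME-180 cervical cancer cells given 40 pM IL-6 alongside compound; SIE-controlled beta-lactamase reporter measured as 460/530 nm FRET emission ratio; % is set by controls: 0 for no effect and ±100 for the full control effect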
- recorded_conditions: ME-180 (cervical carcinoma) SIE beta-lactamase reporter, IL-6 stimulated, 5 h; at 7.69 µM (top of the series) unless noted
Results filed as inconclusive are left out. Activity calls are given as the source filed them. Calls follow the shape of the dose curve; as a rule, active = well fitted curve in either direction with a large enough effect (not every such curve was filed as active); inconclusive = small, poorly fitted or top-dose-only effect, or another doubt; inactive = flat fitted curve, though single readings scatter.
recorded_metric: activity, negative = inhibition

Please review the following examples before continuing.
[
  {
    "line_notation": "COc1ccc2[nH]cc(CCNc3ncncc3-c3cccnc3)c2c1",
    "activity, negative = inhibition": "2.25% (inactive)"
  },
  {
    "line_notation": "O=c1c(-c2cccc(Cl)c2)nc2cncnc2n1Cc1ccccc1",
    "activity, negative = inhibition": "-3.65% (inactive)"
  },
  {
    "line_notation": "CCNc1ncc2nc(-c3ccccc3)c(=O)n(C)c2n1",
    "activity, negative = inhibition": "-9.07% (inactive)"
  },
  {
    "line_notation": "CO[C@H]1C[C@@H](O[C@@H]2[C@H](C)[C@H](O[C@@H]3O[C@@H](C)C[C@@H](N(C)C)[C@@H]3O)[C@H](C)C[C@]3(CO3)C(=O)[C@H](C)[C@H](O)[C@H](C)[C@H](C)OC(=O)[C@@H]2C)O[C@@H](C)[C@H]1O",
    "activity, negative = inhibition": "-6.44% [at 17.2 µM] (inactive)"
  },
  {
    "line_notation": "O=C(c1csnn1)N1CCC2(CC1)CCN(c1ccncc1)CC2",
    "activity, negative = inhibition": "0.543% (inactive)"
  },
  {
    "line_notation": "CN(C)C(=O)c1ccc(-c2cncnc2NCc2cccnc2)cc1",
    "activity, negative = inhibition": "17.6% (inactive)"
  },
  {
    "line_notation": "CCNc1ncc2nc(-c3cccc(C#N)c3)c(=O)n(Cc3cccc(OC)c3)c2n1",
    "activity, negative = inhibition": "-8.97% (inactive)"
  },
  {
    "line_notation": "CN(C)C(=O)c1ccc(-c2ccc3ncnc(NCc4ccccc4)c3c2)cc1",
    "activity, negative = inhibition": "7.31% (inactive)"
  }
]

# return activity, negative = inhibition for each item in the list
1. N#Cc1ccc(CN2CC3(CCN(C(=O)c4csnn4)CC3)C2)cc1
2. COc1ccccc1CN1CC[C@@]2(CCCN(C(=O)c3ccncc3)C2)C1
3. O=C(c1cnccn1)N1CCC2(CC1)CN(Cc1ccccc1)C2
4. COc1ccc(NC(=O)N2CC[C@@]3(CCCN(C(=O)c4ccncc4)C3)C2)cc1

Found:
1: 5.17% (inactive); 2: 0.423% (inactive); 3: 2.48% (inactive); 4: 5.11% (inactive)

Required: activity, negative = inhibition, one value per compound below.
1. COC(=O)N1CCC2(CC1)CN(c1ccc(-c3ccccc3)cc1)C2
2. Clc1ccccc1-c1nc(NCc2cccnc2)c2ccccc2n1
3. c1nc(NCCN2CCOCC2)c2cc(-c3ccc4c(c3)OCO4)ccc2n1
4. CNc1nc(-c2ccoc2)nc2ccccc12
5. COc1ccccc1-c1cncnc1N1CCN(C)CC1

Found:
["-8.46% (inactive)", "-13.8% (inactive)", "-4.03% (inactive)", "8.64% (inactive)", "4.86% (inactive)"]

Provide each entry's activity, negative = inhibition from the list below.
1. Cc1noc(C)c1C(=O)N1CCC2(CCCN(Cc3ccccc3)C2)CC1
2. CN(Cc1ccco1)c1ncncc1-c1cccnc1

Found:
1. 4.66% (inactive)
2. 17.1% (inactive)

---

- experimental_system: Cytochrome P450 3A4 (Homo sapiens) (UniProt P08684)
- protocol_details: qHTS Assay for Inhibitors and Substrates of Cytochrome P450 3A4 (AID 884); note: nearly all actives have a fitted effect of over 50% in size
- recorded_conditions: recombinant CYP3A4, Luciferin-PPXE luminescence; series mostly up to 57.1 µM
Records with an inconclusive call do not appear. The source made the active and inactive calls. Calls come from the whole dose curve; as a rule, active = well fitted inhibition curve with a large enough effect; inconclusive = small, poorly fitted or top-dose-only effect; inactive = no such curve, though single readings can be large or run the other way.
Select the matching outcome among True (active), False (inactive)

Please review the following examples before continuing.
[
  {
    "compound": "CN(Cc1ccco1)c1ccnc(-c2cccc(NS(C)(=O)=O)c2)n1",
    "label_class": "True"
  },
  {
    "compound": "O=c1cc(-c2ccc(O)cc2)oc2cc(O[C@H]3OC(CO)C(O)C(O)C3O)cc(O)c12 (some centres undefined)",
    "label_class": "False"
  },
  {
    "compound": "CN(C)c1ccc(-c2cncnc2NCc2ccccc2)cc1",
    "label_class": "False"
  },
  {
    "compound": "c1cncc(CNc2nc(-c3ccc4c(c3)OCO4)nc3ccccc23)c1",
    "label_class": "True"
  },
  {
    "compound": "c1ccc(CNc2ccnc(-c3cccnc3)n2)cc1",
    "label_class": "True"
  }
]

Lookup: Outcome logged for C[N+](C)(C)CC(O)CC(=O)O (centres undefined) in this assay:
Found: False

Lookup: What is the recorded call for this compound in the test? `COc1ccccc1-c1cncnc1N1CCN(C)CC1`
Found: True

Lookup: What did the test return for `Cc1cccc(CNc2nc(-c3ccoc3)nc3ccccc23)c1` ?
Found: True

Lookup: Would you mind telling me which call this test gave `N#Cc1cccc(-c2nccc(NCc3cccnc3)n2)c1` ?
Found: True

Lookup: Recorded call for `c1cncc(-c2nc(NCc3cccs3)c3ccccc3n2)c1` ?
Found: True

Lookup: Assay outcome for `CN(C)c1ccc(-c2nc(NCCc3cnc[nH]3)c3ccccc3n2)cc1` : what was it?
Found: True

---

- protocol_details: qHTS Assay for Lipid Storage Modulators (AID 1519)
- recorded_conditions: Drosophila S3 cells, BODIPY lipid droplet/cell ratio, laser cytometry; measured here: lipid channel max response; cells loaded with oleic acid
Inconclusive results are not listed.
recorded_metric: max response (%)
One number for each entry, in %.

[
  {
    "line_notation": "CC(=O)[C@@H]1CC[C@@H]2[C@@H]3CCC4=CC(=O)CC[C@@]4(C)[C@H]3CC[C@]21C",
    "max response / %": -17.9
  },
  {
    "line_notation": "CN(C)Cc1ccccc1-c1ccc2ncnc(N3CCOCC3)c2c1",
    "max response / %": 17.3
  },
  {
    "line_notation": "CN(C)c1ccc(-c2ccc3ncnc(NCc4ccccc4)c3c2)cc1",
    "max response / %": -15.6
  },
  {
    "line_notation": "O=C(c1cccc(F)c1)N1CCC[C@@]2(CCN(Cc3ccccc3)C2)C1",
    "max response / %": 12
  }
]

Kindly give each listed record's max response.
1. COc1ccc2[nH]cc(CCNc3nc(-c4ccoc4)nc4ccccc34)c2c1
2. COc1cc(C)c(C(=O)Oc2cc(C)c(C(=O)O)c(O)c2C)c(OC)c1C
3. CC(C)CN1CCC2(CC1)CCN(C(=O)c1cnccn1)CC2
4. O=C(c1ccncc1)N1CCC2(CCN(Cc3ccncc3)CC2)CC1

Found:
1: 18.2; 2: 19.2; 3: -8.33; 4: 23.1
